# experimental_conditions: in DMF, 283.15 K
quantity: solubility (mole fraction)
The reply should be a number, written without any unit.

Ask: Which solubility (mole fraction) value belongs to `CN1CCC(N(Cc2cccs2)c2ccccc2)CC1` ?
Result: 0.00795

Reference source: BigSolDB 2.1
